target: NLRP3 (Homo sapiens); test: IL-1β Secretion Assay (NLRP3-dependent IL1β secretion in THP1 cells); conditions: PMA-differentiated THP-1 cells; compounds incubated 20 h; 2.5 μM Nigericin 3 h; HTRF IL-1β readout; read-out: IC50 IL-1β Inhibition
Sequence (Q96P20 whole entry): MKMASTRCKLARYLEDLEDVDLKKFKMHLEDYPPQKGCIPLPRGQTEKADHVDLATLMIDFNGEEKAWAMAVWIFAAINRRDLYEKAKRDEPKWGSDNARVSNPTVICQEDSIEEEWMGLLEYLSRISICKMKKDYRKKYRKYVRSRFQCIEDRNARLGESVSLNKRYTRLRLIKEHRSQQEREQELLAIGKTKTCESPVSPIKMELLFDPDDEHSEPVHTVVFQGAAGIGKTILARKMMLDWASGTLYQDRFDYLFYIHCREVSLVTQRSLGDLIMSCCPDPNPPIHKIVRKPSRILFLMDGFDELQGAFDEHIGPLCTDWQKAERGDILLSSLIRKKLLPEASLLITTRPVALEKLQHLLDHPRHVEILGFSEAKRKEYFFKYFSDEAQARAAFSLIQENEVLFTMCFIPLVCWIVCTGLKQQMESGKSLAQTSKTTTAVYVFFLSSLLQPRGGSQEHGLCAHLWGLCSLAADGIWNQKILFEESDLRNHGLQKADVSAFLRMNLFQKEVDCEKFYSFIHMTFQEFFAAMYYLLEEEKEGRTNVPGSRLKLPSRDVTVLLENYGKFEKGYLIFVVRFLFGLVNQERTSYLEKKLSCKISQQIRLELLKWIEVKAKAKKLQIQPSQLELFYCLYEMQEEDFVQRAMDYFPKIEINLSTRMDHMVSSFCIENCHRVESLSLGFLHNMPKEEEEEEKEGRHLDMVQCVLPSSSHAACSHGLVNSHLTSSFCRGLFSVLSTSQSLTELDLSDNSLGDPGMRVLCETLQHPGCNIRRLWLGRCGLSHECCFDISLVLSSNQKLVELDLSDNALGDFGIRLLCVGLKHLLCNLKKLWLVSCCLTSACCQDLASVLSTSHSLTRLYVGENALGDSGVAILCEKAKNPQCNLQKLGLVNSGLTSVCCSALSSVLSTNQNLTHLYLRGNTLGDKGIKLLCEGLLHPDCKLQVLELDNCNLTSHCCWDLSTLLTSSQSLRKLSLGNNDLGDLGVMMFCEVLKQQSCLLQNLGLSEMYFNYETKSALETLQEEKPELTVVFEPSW
readout-label: IC50

INSERT INTO measurements (molecule, readout_label, result) VALUES
  ('Oc1cccc(CNc2nnc(-c3ccc(C(F)(F)F)cc3OC(F)F)c3cccn23)c1', 'IC50', '1 to 10 nM'),
  ('COc1ccc(-c2nnc(N[C@@H]3CCCC[C@H]3O)n3cncc23)c(C2CC2)c1', 'IC50', '10 to 100 nM'),
  ('CCN1CCC[C@@H](Nc2nnc(-c3ccc(C(F)(F)F)cc3CC(F)(F)F)c3cncn23)C1', 'IC50', '< 1 nM'),
  ('COc1ccc(-c2nnc(N[C@@H]3CCCC[C@@]3(C)O)n3cccc23)c(OC(F)(F)F)c1 (single isomer, unassigned)', 'IC50', '≥ 300 nM'),
  ('Cc1ccc(-c2nnc(N[C@@H]3CCCN(C)C3)n3cccc23)c(OC(F)(F)F)c1', 'IC50', '1 to 10 nM');

Request: Provide measured IC50 value, entry: `COc1ccc(-c2nnc(N[C@@H]3CCCN(C)C3)n3ccc(F)c23)c(OC(F)(F)F)c1`
Result: 1 to 10 nM

Request: Answer with reported IC50 of `COc1ccc(-c2nnc(N[C@H]3C[C@@](C)(O)C3)n3cccc23)c(C2CC2)c1`
Result: 10 to 100 nM

====

Biological target: NLRP3 (Homo sapiens)
Experiment: IL-1β Secretion Assay (NLRP3-dependent IL1β secretion in THP1 cells)
Details: PMA-differentiated THP-1 cells; compounds incubated 20 h; 2.5 μM Nigericin 3 h; HTRF IL-1β readout; read-out: IC50 IL-1β Inhibition
Description: Monocytic THP-1 cells (ATCC: TIB-202) were maintained in growth media consisting of RPMI 1640 medium (ThermoFisher, Cat #11875-085), 10% FBS (ThermoFisher) and 0.05 mM β-mercaptoethanol (ThermoFisher, Cat #21985-023), according to the provider's instructions. […] Compounds, once produced and prepared according to the present invention, can be assessed in variety of assays to characterize their activities. For example, NLRP3-dependent IL1β secretion was evaluated in THP1 cells. […]
pIC50: −log10 of the molar value.
readout-label: pIC50

Some compounds with known pIC50 results, for comparison:
INSERT INTO results (compound, tested_system, readout_label, result) VALUES
  ('COc1ccc(-c2nnc(N[C@@H]3CCCN(C)C3)n3cncc23)c(OC(F)(F)F)c1', 'NLRP3 (Homo sapiens)', 'pIC50', '> 9.00'),
  ('COc1ccc(-c2nnc(NC3CCOCC3)n3cccc23)c(OC(F)(F)F)c1', 'NLRP3 (Homo sapiens)', 'pIC50', '8.00 to 9.00'),
  ('CN1CCC[C@@H](Nc2nnc(-c3ccc(C(F)(F)F)cc3OC(F)(F)F)c3cccn23)C1', 'NLRP3 (Homo sapiens)', 'pIC50', '> 9.00');

Request: Note down pIC50 recorded for COc1ccc(-c2nnc(NC3CCNC3=O)n3cccc23)c(CC(F)(F)F)c1 (centres unmarked)
Result: 8.00 to 9.00

Request: Report pIC50, nothing else, for this compound: `CCN1CCC[C@@H](Nc2nnc(-c3ccc(C(F)(F)F)cc3OC(F)(F)F)c3cncn23)C1`
Result: > 9.00

Request: State its pIC50 for this compound: `CN1CCC[C@@H](Nc2nnc(-c3ccc(OC(F)F)cc3OC(F)(F)F)c3cccn23)C1`
Result: > 9.00

Request: For O[C@@H]1CCCC[C@@H](Nc2nnc(-c3ccc(C(F)(F)F)cc3CC(F)(F)F)c3cccn23)C1 (racemic) , write its pIC50.
Result: 8.00 to 9.00

Request: // fetch pIC50 given entry `COc1ccc(-c2nnc(N[C@@H]3CCOC[C@H]3O)n3cncc23)c(OC(F)(F)F)c1`
Result: 7.00 to 8.00
